Biological target: Carbonic anhydrase 9 (Homo sapiens, UniProt Q16790)
Assay: Inhibition of human recombinant carbonic anhydrase 9 assessed as CO2 hydration preincubated for 15 mins prior to testing measured for 10 to 100 secs by phenol red dye-based stopped-flow assay
experimental-readout: pKi
In simple prose, pKi is minus the logarithm base ten of a concentration in moles per litre.

Prompt: Would you kindly share the measured pKi for NS(=O)(=O)c1ccc(C(=O)N/N=C/c2ccc(N3CCN(c4ccc(C(F)(F)F)cc4)CC3)cc2)cc1 ?
Completion: 5.73

Prompt: # iterate: NS(=O)(=O)c1ccc(N/N=C/c2ccc(N3CCN(c4ccccc4)CC3)cc2)cc1
Completion: 5.91

Prompt: # iterate: NS(=O)(=O)c1ccc(N/N=C/c2ccc(N3CCN(C(=O)c4ccco4)CC3)cc2)cc1
Completion: 5.75

Prompt: # iterate: NS(=O)(=O)c1ccc(C(=O)N/N=C/c2ccc(N3CCN(Cc4ccc5c(c4)OCO5)CC3)cc2)cc1
Completion: 7.02

Prompt: # iterate: Cc1ccc(N2CCN(c3ccc(/C=N/Nc4ccc(S(N)(=O)=O)cc4)cc3)CC2)c(C)c1
Completion: 5.76

====

Molecular target: Carbonic anhydrase 9 (Homo sapiens, UniProt Q16790)
Assay: Inhibition of human recombinant carbonic anhydrase 9 assessed as CO2 hydration preincubated for 15 mins prior to testing measured for 10 to 100 secs by phenol red dye-based stopped-flow assay
experimental-readout: Ki (µM)
// units = µM; emit number, no label

Worked cases, Ki given:
NS(=O)(=O)c1ccc(C(=O)N/N=C/c2ccc(N3CCN(c4ncccn4)CC3)cc2)cc1 1.84
NS(=O)(=O)c1ccc(C(=O)N/N=C/c2ccc(N3CCN(Cc4ccccc4)CC3)cc2)cc1 0.163
NS(=O)(=O)c1ccc(C(=O)N/N=C/c2ccc(N3CCN(c4ccccc4)CC3)cc2)cc1 0.276

Prompt: Would you kindly share the measured Ki for NS(=O)(=O)c1ccc(N/N=C/c2ccc(N3CCN(c4ccccn4)CC3)cc2)cc1 ?
Completion: 0.235

Prompt: # iterate: NS(=O)(=O)c1ccc(C(=O)N/N=C/c2ccc(N3CCN(c4ccccn4)CC3)cc2)cc1
Completion: 0.152

====

Biological target: Carbonic anhydrase 2 (Homo sapiens, UniProt P00918)
Assay: Inhibition of human recombinant carbonic anhydrase 2 assessed as CO2 hydration preincubated for 15 mins prior to testing measured for 10 to 100 secs by phenol red dye-based stopped-flow assay
experimental-readout: Ki

Worked cases, Ki given:
NS(=O)(=O)c1ccc(N/N=C/c2ccc(N3CCN(C(=O)OCc4ccccc4)CC3)cc2)cc1 93.9 nM
NS(=O)(=O)c1ccc(C(=O)N/N=C/c2ccc(N3CCN(c4ccccn4)CC3)cc2)cc1 4560 nM
NS(=O)(=O)c1ccc(N/N=C/c2ccc(N3CCN(c4ccccn4)CC3)cc2)cc1 4590 nM
NS(=O)(=O)c1ccc(N/N=C/c2ccc(N3CCN(c4ccc(F)cc4)CC3)cc2)cc1 559 nM
Cc1ccc(N2CCN(c3ccc(/C=N/Nc4ccc(S(N)(=O)=O)cc4)cc3)CC2)c(C)c1 553 nM
NS(=O)(=O)c1ccc(C(=O)N/N=C/c2ccc(N3CCN(Cc4ccccc4)CC3)cc2)cc1 414 nM
NS(=O)(=O)c1ccc(N/N=C/c2ccc(N3CCN(c4ncccn4)CC3)cc2)cc1 8400 nM
NS(=O)(=O)c1ccc(C(=O)N/N=C/c2ccc(N3CCN(c4ncccn4)CC3)cc2)cc1 963 nM

Prompt: Would you kindly share the measured Ki for NS(=O)(=O)c1ccc(C(=O)N/N=C/c2ccc(N3CCN(c4ccc(C(F)(F)F)cc4)CC3)cc2)cc1 ?
Completion: 556 nM

Prompt: # iterate: NS(=O)(=O)c1ccc(C(=O)N/N=C/c2ccc(N3CCN(C(=O)c4ccccc4)CC3)cc2)cc1
Completion: 308 nM

Prompt: # iterate: NS(=O)(=O)c1ccc(C(=O)N/N=C/c2ccc(N3CCN(c4ccc(F)cc4)CC3)cc2)cc1
Completion: 822 nM

Prompt: # iterate: NS(=O)(=O)c1ccc(C(=O)N/N=C/c2ccc(N3CCN(C(=O)c4ccco4)CC3)cc2)cc1
Completion: 686 nM

Prompt: # iterate: NS(=O)(=O)c1ccc(C(=O)N/N=C/c2ccc(N3CCN(C(=O)OCc4ccccc4)CC3)cc2)cc1
Completion: 1450 nM

Prompt: # iterate: Cc1ccc(N2CCN(c3ccc(/C=N/NC(=O)c4ccc(S(N)(=O)=O)cc4)cc3)CC2)c(C)c1
Completion: 9390 nM

Prompt: # iterate: NS(=O)(=O)c1ccc(N/N=C/c2ccc(N3CCN(c4ccc(C(F)(F)F)cc4)CC3)cc2)cc1
Completion: 7520 nM

Prompt: # iterate: NS(=O)(=O)c1ccc(N/N=C/c2ccc(N3CCN(C(=O)c4ccccc4)CC3)cc2)cc1
Completion: 2790 nM

Prompt: # iterate: NS(=O)(=O)c1ccc(N/N=C/c2ccc(N3CCN(c4ccccc4)CC3)cc2)cc1
Completion: 888 nM

Prompt: # iterate: NS(=O)(=O)c1ccc(N/N=C/c2ccc(N3CCN(C(=O)c4ccco4)CC3)cc2)cc1
Completion: 30.8 nM

Prompt: # iterate: NS(=O)(=O)c1ccc(C(=O)N/N=C/c2ccc(N3CCN(c4ccccc4)CC3)cc2)cc1
Completion: 4130 nM

Prompt: # iterate: NS(=O)(=O)c1ccc(C(=O)N/N=C/c2ccc(N3CCN(Cc4ccc5c(c4)OCO5)CC3)cc2)cc1
Completion: 962 nM

====

Biological target: Carbonic anhydrase 7 (Homo sapiens)
Test: Inhibition of human recombinant carbonic anhydrase 7 assessed as CO2 hydration preincubated for 15 mins prior to testing measured for 10 to 100 secs by phenol red dye-based stopped-flow assay
experimental-readout: Ki (nM)
// units = nM; emit number, no label

Prompt: Would you kindly share the measured Ki for NS(=O)(=O)c1ccc(N/N=C/c2ccc(N3CCN(c4ccccn4)CC3)cc2)cc1 ?
Completion: 135

Prompt: # iterate: NS(=O)(=O)c1ccc(C(=O)N/N=C/c2ccc(N3CCN(C(=O)c4ccccc4)CC3)cc2)cc1
Completion: 94.7

Prompt: # iterate: NS(=O)(=O)c1ccc(N/N=C/c2ccc(N3CCN(c4ccccc4)CC3)cc2)cc1
Completion: 98.4

Prompt: # iterate: NS(=O)(=O)c1ccc(N/N=C/c2ccc(N3CCN(C(=O)OCc4ccccc4)CC3)cc2)cc1
Completion: 11.4

Prompt: # iterate: NS(=O)(=O)c1ccc(C(=O)N/N=C/c2ccc(N3CCN(c4ccccn4)CC3)cc2)cc1
Completion: 126

Prompt: # iterate: NS(=O)(=O)c1ccc(N/N=C/c2ccc(N3CCN(c4ccc(C(F)(F)F)cc4)CC3)cc2)cc1
Completion: 118

Prompt: # iterate: NS(=O)(=O)c1ccc(C(=O)N/N=C/c2ccc(N3CCN(c4ccc(C(F)(F)F)cc4)CC3)cc2)cc1
Completion: 148

Prompt: # iterate: Cc1ccc(N2CCN(c3ccc(/C=N/NC(=O)c4ccc(S(N)(=O)=O)cc4)cc3)CC2)c(C)c1
Completion: 17.8

Prompt: # iterate: NS(=O)(=O)c1ccc(C(=O)N/N=C/c2ccc(N3CCN(C(=O)OCc4ccccc4)CC3)cc2)cc1
Completion: 121

Prompt: # iterate: NS(=O)(=O)c1ccc(C(=O)N/N=C/c2ccc(N3CCN(c4ccccc4)CC3)cc2)cc1
Completion: 181

Prompt: # iterate: NS(=O)(=O)c1ccc(C(=O)N/N=C/c2ccc(N3CCN(Cc4ccccc4)CC3)cc2)cc1
Completion: 41.5

====

Target: Carbonic anhydrase 9 (Homo sapiens, UniProt Q16790)
Test: Inhibition of human recombinant carbonic anhydrase 9 assessed as CO2 hydration preincubated for 15 mins prior to testing measured for 10 to 100 secs by phenol red dye-based stopped-flow assay
experimental-readout: pKi
In simple prose, pKi is minus the logarithm base ten of a concentration in moles per litre.

NS(=O)(=O)c1ccc(C(=O)N/N=C/c2ccc(N3CCN(C(=O)c4ccccc4)CC3)cc2)cc1 5.98
NS(=O)(=O)c1ccc(N/N=C/c2ccc(N3CCN(C(=O)OCc4ccccc4)CC3)cc2)cc1 5.79

From here, focus on the item given below.
Prompt: Would you kindly share the measured pKi for NS(=O)(=O)c1ccc(C(=O)N/N=C/c2ccc(N3CCN(C(=O)c4ccco4)CC3)cc2)cc1 ?
Completion: 7.52

====

Biological target: Carbonic anhydrase 7 (Homo sapiens, UniProt P43166)
Sequence (P43166 whole entry): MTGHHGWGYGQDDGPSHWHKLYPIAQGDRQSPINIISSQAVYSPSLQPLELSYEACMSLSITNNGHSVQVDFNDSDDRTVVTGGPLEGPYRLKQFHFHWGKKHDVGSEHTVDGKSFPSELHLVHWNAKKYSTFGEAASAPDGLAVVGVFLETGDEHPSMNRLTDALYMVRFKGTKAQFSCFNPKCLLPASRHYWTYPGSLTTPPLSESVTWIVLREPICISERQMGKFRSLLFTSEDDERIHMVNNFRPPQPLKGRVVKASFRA
Assay: Inhibition of human recombinant carbonic anhydrase 7 assessed as CO2 hydration preincubated for 15 mins prior to testing measured for 10 to 100 secs by phenol red dye-based stopped-flow assay
pKi: −log10 of the molar value.
Where pKi equals or exceeds 7, the correct label is met; where it does not, the label is not met.

Use the examples below as a reference point.
NS(=O)(=O)c1ccc(N/N=C/c2ccc(N3CCN(c4ncccn4)CC3)cc2)cc1 not met
NS(=O)(=O)c1ccc(C(=O)N/N=C/c2ccc(N3CCN(Cc4ccc5c(c4)OCO5)CC3)cc2)cc1 not met
NS(=O)(=O)c1ccc(N/N=C/c2ccc(N3CCN(c4ccc(F)cc4)CC3)cc2)cc1 met

Now look at this entry.
Prompt: Decide: pKi of NS(=O)(=O)c1ccc(N/N=C/c2ccc(N3CCN(C(=O)c4ccco4)CC3)cc2)cc1 >= 7?
Completion: met
